Test system: Klebsiella pneumoniae
Test: Antibacterial activity against Klebsiella pneumoniae after 24 hrs by spectrophotometric analysis
Format: functional, organism-based
Settings: Klebsiella pneumoniae, 24 h
Quick reference: MIC of the listed items.

compound	subject.of.test	MIC
CCn1cc(C(=O)O)c(=O)c2cc(F)c(N3CCN(C(c4ccncc4)c4nnnn4C4CCCCC4)CC3)cc21 (configuration not stated)	Klebsiella pneumoniae	6.3 µg/mL
O=C(O)c1cn(C2CC2)c2cc(N3CCNCC3)c(F)cc2c1=O	Klebsiella pneumoniae	0.049 µg/mL
CCn1cc(C(=O)O)c(=O)c2cc(F)c(N3CCN(C(c4ccncc4)c4nnnn4C(C)(C)C)CC3)cc21 (configuration not stated)	Klebsiella pneumoniae	26 µg/mL
O=C(O)c1cn(Cc2ccc(C(F)(F)F)cc2)c2cc(N3CCN(C(c4ccco4)c4nnnn4C4CCCCC4)CC3)c(F)cc2c1=O (configuration not stated)	Klebsiella pneumoniae	3.4 µg/mL
CCn1cc(C(=O)O)c(=O)c2cc(F)c(N3CCN(C(c4ccco4)c4nnnn4C(C)(C)C)CC3)cc21 (configuration not stated)	Klebsiella pneumoniae	10.1 µg/mL
CCn1cc(C(=O)O)c(=O)c2cc(F)c(N3CCN(C(c4ccc(OC)c(OC)c4OC)c4nnnn4C(C)(C)C)CC3)cc21 (configuration not stated)	Klebsiella pneumoniae	> 50 µg/mL
CCn1cc(C(=O)O)c(=O)c2cc(F)c(N3CCN(C(c4ccco4)c4nnnn4C4CCCCC4)CC3)cc21 (configuration not stated)	Klebsiella pneumoniae	5.2 µg/mL

----------
System: Staphylococcus aureus
Experiment: Antibacterial activity against gentamicin-resistant Staphylococcus aureus ATCC 33592 after 24 hrs by spectrophotometric analysis
Type: functional, organism-based
Conditions: Staphylococcus aureus, ATCC 33592, 24 h

compound	qualifier.operator	MIC / µg/mL
CC(C)c1ccc(C(c2nnnn2C2CCCCC2)N2CCN(c3cc4c(cc3F)c(=O)c(C(=O)O)cn4Cc3ccc(C(F)(F)F)cc3)CC2)cc1 (stereo not drawn)	>	50
CCn1cc(C(=O)O)c(=O)c2cc(F)c(N3CCN(C(c4ccco4)c4nnnn4C(C)(C)C)CC3)cc21 (stereo not drawn)	=	0.5
CCn1cc(C(=O)O)c(=O)c2cc(F)c(N3CCN(C(c4cccc5ccccc45)c4nnnn4C4CCCCC4)CC3)cc21 (stereo not drawn)	=	4.2

----------
Test system: Staphylococcus aureus
Experiment: Antibacterial activity against Staphylococcus aureus ATCC 25923 after 24 hrs by spectrophotometric analysis
Assay type: functional, organism-based
Conditions: Staphylococcus aureus, ATCC 25923, 24 h
Strictly below 1 µg/mL in MIC: label 1. Otherwise: label 0.

compound	subject.of.test	class
CCn1cc(C(=O)O)c(=O)c2cc(F)c(N3CCN(C(c4ccc(OC)c(OC)c4OC)c4nnnn4C4CCCCC4)CC3)cc21 (configuration not stated)	Staphylococcus aureus	label 0
CC(C)(C)n1nnnc1C(c1ccccc1)N1CCN(c2cc3c(cc2F)c(=O)c(C(=O)O)cn3Cc2ccc(C(F)(F)F)cc2)CC1 (configuration not stated)	Staphylococcus aureus	label 0
CC(C)(C)n1nnnc1C(c1cccc2ccccc12)N1CCN(c2cc3c(cc2F)c(=O)c(C(=O)O)cn3Cc2ccc(C(F)(F)F)cc2)CC1 (configuration not stated)	Staphylococcus aureus	label 0
CCn1cc(C(=O)O)c(=O)c2cc(F)c(N3CCN(C(c4cccc5ccccc45)c4nnnn4C(C)(C)C)CC3)cc21 (configuration not stated)	Staphylococcus aureus	label 1
CCn1cc(C(=O)O)c(=O)c2cc(F)c(N3CCN(C(c4cccc5ccccc45)c4nnnn4C4CCCCC4)CC3)cc21 (configuration not stated)	Staphylococcus aureus	label 0
COc1ccc(C(c2nnnn2C2CCCCC2)N2CCN(c3cc4c(cc3F)c(=O)c(C(=O)O)cn4Cc3ccc(C(F)(F)F)cc3)CC2)c(OC)c1OC (configuration not stated)	Staphylococcus aureus	label 0
CCn1cc(C(=O)O)c(=O)c2cc(F)c(N3CCN(C(c4ccc(F)cc4)c4nnnn4C4CCCCC4)CC3)cc21 (configuration not stated)	Staphylococcus aureus	label 0
CCn1cc(C(=O)O)c(=O)c2cc(F)c(N3CCN(C(c4ccncc4)c4nnnn4C(C)(C)C)CC3)cc21 (configuration not stated)	Staphylococcus aureus	label 1
CCn1cc(C(=O)O)c(=O)c2cc(F)c(N3CCN(C(c4ccco4)c4nnnn4C(C)(C)C)CC3)cc21 (configuration not stated)	Staphylococcus aureus	label 1
CC(C)c1ccc(C(c2nnnn2C2CCCCC2)N2CCN(c3cc4c(cc3F)c(=O)c(C(=O)O)cn4Cc3ccc(C(F)(F)F)cc3)CC2)cc1 (configuration not stated)	Staphylococcus aureus	label 0
CCn1cc(C(=O)O)c(=O)c2cc(F)c(N3CCN(C(c4ccncc4)c4nnnn4C4CCCCC4)CC3)cc21 (configuration not stated)	Staphylococcus aureus	label 0
CCn1cc(C(=O)O)c(=O)c2cc(F)c(N3CCN(C(c4ccc(OC)c5ccccc45)c4nnnn4C(C)(C)C)CC3)cc21 (configuration not stated)	Staphylococcus aureus	label 0
